The reported numbers originate from PubChem BioAssay AID1845206.

system: NCI-H1618 multicellular tumor spheroid viability; assay: Anticancer human tumor NCI-H1618 cell line growth inhibition; conditions: second compound 30 pM; first compound 0.1 µM; active compounds read low;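 note: spheroids exposed to agents for 7 days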
Reported Metric: viability, T/C

Some solved entries appear below for comparison.
Compound	viability, T/C
COc1cc(C)[nH]c(=O)c1CN1CCc2c(Cl)cc(C(OC)C3COC3)c(Cl)c2C1=O (centres undefined) + COc1cc2c(cc1O)CCNC21CSC2c3c(OC(C)=O)c(C)c4c(c3C(COC1=O)N1C(O)C3Cc5cc(C)c(OC)c(O)c5C(C21)N3C)OCO4	74.9%
COc1ccc([C@@H](O)c2cc(-c3ncnc4cc(N5CCOCC5)ccc34)c(F)cc2Cl)nn1 + COc1cc2c(cc1O)CCNC21CSC2c3c(OC(C)=O)c(C)c4c(c3C(COC1=O)N1C(O)C3Cc5cc(C)c(OC)c(O)c5C(C21)N3C)OCO4	103%
CC(C)n1c(=O)n(C)c2cnc3cc(F)c(-c4ccc(OCCCN5CCCCC5)nc4)cc3c21 + COc1cc2c(cc1O)CCNC21CSC2c3c(OC(C)=O)c(C)c4c(c3C(COC1=O)N1C(O)C3Cc5cc(C)c(OC)c(O)c5C(C21)N3C)OCO4	66.3%

We next turn to a different compound, shown below.
Lab note: measured viability, T/C of Cc1cc(C)c(CNC(=O)c2cc(-c3ccc(CN4CCOCC4)cc3)cc3c2cnn3C2CCCC2)c(=O)[nH]1 + COc1cc2c(cc1O)CCNC21CSC2c3c(OC(C)=O)c(C)c4c(c3C(COC1=O)N1C(O)C3Cc5cc(C)c(OC)c(O)c5C(C21)N3C)OCO4 was 86.8%
